ASSAY_TARGET: Cellular tumor antigen p53 (Homo sapiens) (UniProt P04637)
Sequence (P04637 whole entry, looked up): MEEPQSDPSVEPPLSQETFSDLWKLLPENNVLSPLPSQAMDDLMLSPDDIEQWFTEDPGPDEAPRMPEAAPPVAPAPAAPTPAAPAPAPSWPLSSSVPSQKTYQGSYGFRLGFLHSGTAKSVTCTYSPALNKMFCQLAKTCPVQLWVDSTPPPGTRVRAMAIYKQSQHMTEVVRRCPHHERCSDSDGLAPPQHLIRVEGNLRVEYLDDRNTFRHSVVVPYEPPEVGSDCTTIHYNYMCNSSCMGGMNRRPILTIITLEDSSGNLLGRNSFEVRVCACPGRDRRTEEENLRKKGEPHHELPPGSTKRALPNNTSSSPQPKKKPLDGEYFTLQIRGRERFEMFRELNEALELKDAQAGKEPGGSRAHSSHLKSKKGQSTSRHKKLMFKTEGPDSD
PROCEDURE_DETAILS: nuclear p53 accumulation, HPV+ cells – imaging, p53-positive nuclei imaging, 24 h, 48 h (AID 1508601)
CONDITION_CONTEXT: 24/48 h, Library stock concentration: 10 mM, hits give high values
Hit rate of the full screen: of about 5,700 compounds, about 85 (1%) were called active. The sample holds actives, similar compounds and a random draw of the others, so the mix is not that of the screen.
# p53-positive nuclei, normalised per entry

{"columns": ["MOLECULE", "DATA_VALUE"],
 "data": [
  ["CC(C)(CO)c1cc2cc(NC(=O)C3(c4ccc5c(c4)OC(F)(F)O5)CC3)c(F)cc2n1CC(O)CO (stereo not given)", "0.115% (inactive)"]
]}

Query string: Entry CNC(=O)c1ccc(Nc2ncc(C(F)(F)F)c(NCc3nccnc3N(C)S(C)(=O)=O)n2)cc1 : reported p53-positive nuclei, normalised = ?
Result string: 14.9% (inactive)

Query string: Give its p53-positive nuclei, normalised value. Item: Nc1ccn(C2OC(CO)C(O)C2F)c(=O)n1 (stereo not given)
Result string: 0.266% (inactive)

Query string: For the molecule shown here, Cn1cc(CNCC2CCN(c3ncc(C(=O)NO)cn3)CC2)c2ccccc21 , give the reported p53-positive nuclei, normalised.
Result string: 108% (active)

Query string: Recorded p53-positive nuclei, normalised for COc1cc(C(=O)NS(=O)(=O)c2ccccc2C)ccc1Cc1cn(C)c2ccc(NC(=O)OC3CCCC3)cc12 , please?
Result string: 0.0919% (inactive)
